- Tested on: Saccharomyces cerevisiae
- experiment.notes: Potentiation of fluconazole-induced antifungal activity against Saccharomyces cerevisiae AD1-8u(-) by checkerboard method
- Type: functional
assay.metric: fractional inhibitory concentration index (FICI)

molecule: CCC(=O)O[C@@H]1[C@@H]2[C@@H](OC(C)=O)[C@]3(CC[C@H]4[C@@H](/C=C(\C)C(=O)[C@@]2(OC(C)=O)C[C@@H]1C)C4(C)C)CO3
endpoint.value: 2

molecule: C=C1CC[C@H]2[C@@H](/C=C(\C)C(=O)[C@@]3(O)C[C@H](C)[C@H](O)[C@@H]3[C@H]1OC(=O)c1cccc(OC)c1)C2(C)C
endpoint.value: 2

molecule: CCCCC(CC)C(=O)O[C@@H]1[C@@H]2[C@@H](OC(=O)C(CC)CCCC)[C@]3(CC[C@H]4[C@@H](/C=C(\C)C(=O)[C@@]2(O)C[C@@H]1C)C4(C)C)CO3 (stereo partly drawn)
endpoint.value: 2

----------
- Tested on: Candida albicans
- experiment.notes: Inhibition of Candida albicans MDR1 expressed in Saccharomyces cerevisiae AD assessed as reduction in nile red dye efflux at 70 uM after 30 mins by flow cytometry relative to control
Entries and their inhibition values follow.

chemical.structure: C=C1CC[C@H]2[C@@H](/C=C(\C)C(=O)[C@@]3(O)C[C@H](C)[C@H](O)[C@@H]3[C@H]1OC(=O)/C=C/c1ccccc1)C2(C)C
output.unit: %
inhibition: 30

chemical.structure: C=C1CC[C@H]2[C@@H](/C=C(\C)C(=O)[C@@]3(O)C[C@H](C)[C@H](O)[C@@H]3[C@H]1OC(=O)c1ccc(C(F)(F)F)cc1)C2(C)C
output.unit: %
inhibition: 15

chemical.structure: C/C1=C\[C@@H]2[C@H](CC[C@]3(CO3)[C@H](OC(=O)c3ccccc3)[C@H]3[C@@H](OC(=O)c4ccccc4)[C@@H](C)C[C@]3(OC(=O)c3ccccc3)C1=O)C2(C)C
output.unit: %
inhibition: 20

----------
- System: Candida albicans
- experiment.notes: Inhibition of Candida albicans MDR1 expressed in Saccharomyces cerevisiae AD assessed as reduction in nile red dye efflux at 70 uM after 30 mins by flow cytometry relative to control
assay.metric: inhibition (%)

chemical.structure: C/C1=C\[C@@H]2[C@H](CC[C@]3(CO3)[C@H](O)[C@H]3[C@@H](O)[C@@H](C)C[C@]3(O)C1=O)C2(C)C
assay.metric: inhibition
endpoint.value: 85
//
chemical.structure: CCCC(=O)O[C@@H]1[C@@H]2[C@@H](OC(C)=O)[C@]3(CC[C@H]4[C@@H](/C=C(\C)C(=O)[C@@]2(OC(C)=O)C[C@@H]1C)C4(C)C)CO3
assay.metric: inhibition
endpoint.value: 25
//
chemical.structure: COc1ccc(C(=O)O[C@@H]2[C@@H]3[C@@H](OC(=O)c4ccc(OC)cc4)[C@]4(CC[C@H]5[C@@H](/C=C(\C)C(=O)[C@@]3(O)C[C@@H]2C)C5(C)C)CO4)cc1
assay.metric: inhibition
endpoint.value: 80
//
chemical.structure: C/C1=C\[C@@H]2[C@H](CC[C@]3(CO3)[C@H](OC(=O)c3ccc(C)cc3)[C@H]3[C@@H](OC(=O)c4ccc(C)cc4)[C@@H](C)C[C@]3(O)C1=O)C2(C)C
assay.metric: inhibition
endpoint.value: 25
//
chemical.structure: C/C1=C\[C@@H]2[C@H](CC[C@]3(CO3)[C@H](OC(=O)c3ccccc3)[C@H]3[C@@H](OC(=O)c4ccccc4)[C@@H](C)C[C@]3(O)C1=O)C2(C)C
assay.metric: inhibition
endpoint.value: 80
